- assayedTarget: hERG (KV11.1) (Homo sapiens)
- Sequence (Q12809 whole entry): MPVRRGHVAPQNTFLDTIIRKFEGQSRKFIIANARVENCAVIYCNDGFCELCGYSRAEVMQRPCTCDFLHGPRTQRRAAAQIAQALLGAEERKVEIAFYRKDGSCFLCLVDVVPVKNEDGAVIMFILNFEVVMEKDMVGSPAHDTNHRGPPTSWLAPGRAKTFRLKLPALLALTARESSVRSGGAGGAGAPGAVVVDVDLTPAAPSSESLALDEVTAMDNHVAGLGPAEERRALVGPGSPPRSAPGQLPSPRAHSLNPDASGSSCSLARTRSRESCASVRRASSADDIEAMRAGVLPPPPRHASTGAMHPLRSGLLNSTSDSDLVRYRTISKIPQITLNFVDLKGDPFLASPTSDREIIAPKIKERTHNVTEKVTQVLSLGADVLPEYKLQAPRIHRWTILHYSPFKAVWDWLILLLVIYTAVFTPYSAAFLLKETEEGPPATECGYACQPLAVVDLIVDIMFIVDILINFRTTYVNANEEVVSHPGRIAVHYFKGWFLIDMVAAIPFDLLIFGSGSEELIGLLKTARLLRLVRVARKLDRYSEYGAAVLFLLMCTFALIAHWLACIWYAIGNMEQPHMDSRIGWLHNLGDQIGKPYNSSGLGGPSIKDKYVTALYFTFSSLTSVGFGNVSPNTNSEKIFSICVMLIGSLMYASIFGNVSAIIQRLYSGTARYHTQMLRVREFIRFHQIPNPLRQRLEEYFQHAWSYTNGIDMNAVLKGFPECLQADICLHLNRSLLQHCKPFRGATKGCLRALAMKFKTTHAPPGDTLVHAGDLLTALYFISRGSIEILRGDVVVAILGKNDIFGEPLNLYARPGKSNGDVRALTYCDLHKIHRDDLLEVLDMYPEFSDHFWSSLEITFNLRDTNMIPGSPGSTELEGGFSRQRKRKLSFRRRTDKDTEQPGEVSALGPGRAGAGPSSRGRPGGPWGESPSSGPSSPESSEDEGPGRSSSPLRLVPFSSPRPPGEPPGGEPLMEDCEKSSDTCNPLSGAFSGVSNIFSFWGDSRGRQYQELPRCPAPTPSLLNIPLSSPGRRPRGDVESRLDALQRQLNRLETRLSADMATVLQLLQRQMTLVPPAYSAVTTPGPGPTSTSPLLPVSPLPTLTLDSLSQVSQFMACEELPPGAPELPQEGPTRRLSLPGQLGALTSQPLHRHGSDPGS
- assayDetails: Automated planar patch-clamp (APC, QPatch II 48), voltage-ladder protocol, CHO cells stably expressing human hERG
- measurementContext: best fit; 1 = no reduction of Gmax, 0 = complete reduction; APC, 22 °C
measurementKind: hERG channel Efficacy (max reduction in Gmax) Gmin
Kindly provide the number alone.

Exam item: So what does the record say about hERG channel Efficacy (max reduction in Gmax) Gmin for CC(C)(C)C(NC(=O)c1cn(CC2CCCCC2)c2ccccc12)C(N)=O (centres unmarked) ?
Marked response: 0.48

Exam item: And then CCCCCCn1nc(C(=O)NC(C(N)=O)C(C)(C)C)c2ccccc21 (centres unmarked) , what is it?
Marked response: 0.037

Exam item: And then CC(C)(C)[C@H](NC(=O)c1nn(Cc2ccc(F)cc2)c2ccccc12)C(N)=O , what is it?
Marked response: 0.25

Exam item: And then CC(C)[C@H](NC(=O)c1cn(CC2CCCCC2)c2ccccc12)C(N)=O , what is it?
Marked response: 0.64

Now turn to the next molecule.
Exam item: So what does the record say about hERG channel Efficacy (max reduction in Gmax) Gmin for O=C(c1cccc2ccccc12)c1cn(CCCCCF)c2ccccc12 ?
Marked response: 0.38

====

- assayedTarget: human CB1 receptor (Homo sapiens)
- Construct: host or cells: CHO-K1 stably expressing CB1, apoaequorin and Gα16
- Sequence (P21554 whole entry): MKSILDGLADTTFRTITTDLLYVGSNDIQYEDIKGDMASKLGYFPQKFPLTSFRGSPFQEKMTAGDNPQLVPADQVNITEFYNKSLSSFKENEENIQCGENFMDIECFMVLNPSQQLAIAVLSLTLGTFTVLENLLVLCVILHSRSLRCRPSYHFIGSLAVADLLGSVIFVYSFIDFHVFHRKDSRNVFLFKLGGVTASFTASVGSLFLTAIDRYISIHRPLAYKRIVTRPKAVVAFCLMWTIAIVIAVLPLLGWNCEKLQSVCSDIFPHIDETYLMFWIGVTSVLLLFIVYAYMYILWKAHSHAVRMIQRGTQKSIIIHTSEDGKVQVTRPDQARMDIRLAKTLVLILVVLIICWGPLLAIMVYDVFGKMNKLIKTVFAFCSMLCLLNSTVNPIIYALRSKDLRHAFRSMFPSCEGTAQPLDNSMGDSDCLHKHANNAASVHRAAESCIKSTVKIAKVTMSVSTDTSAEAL
- assayDetails: AequoScreen intracellular calcium release assay, CHO-K1 cells stably expressing CB1
- Format: cell-based
- measurementContext: normalized to maximum of JWH-018; n ≥ 3 (JWH-030 n = 2)
measurementKind: CB1 receptor Efficacy Emax (% JWH-018)
Field format: number, assumed % JWH-018, no unit text.

// worked examples, CB1 receptor Efficacy Emax included
Exam item: # value lookup — system human CB1 receptor (Homo sapiens), readout CB1 receptor Efficacy Emax, item COC(=O)[C@@H](NC(=O)c1cn(CCCCF)c2ccccc12)C(C)(C)C [4F-MDMB-BUTICA]
Marked response: 115

Exam item: And then O=C(NC12CC3CC(CC(C3)C1)C2)c1nn(CCCCCF)c2ccccc12 [5F-APINACA] , what is it?
Marked response: 102

Exam item: And then CCCCCN1C(=O)/C(=N\NC(=O)c2ccccc2)c2ccccc21 [BZO-POXIZID] , what is it?
Marked response: 108

Exam item: And then CC(C)(C)[C@H](NC(=O)c1n[nH]c2ccc(Br)cc12)C(N)=O [ADB-5'Br-INACA] , what is it?
Marked response: 111

Exam item: And then CCCCCCn1nc(C(=O)NC(C(N)=O)C(C)(C)C)c2ccccc21 (stereo not shown) [ADB-HEXINACA] , what is it?
Marked response: 117

Next:
Exam item: # value lookup — system human CB1 receptor (Homo sapiens), readout CB1 receptor Efficacy Emax, item COC(=O)C(NC(=O)c1nn(CC2CCCCC2)c2ccccc12)C(C)(C)C (stereo not shown) [MDMB-[…]]
Marked response: 106

Exam item: And then CCCCCn1cc(C(=O)c2cccc3ccccc23)c2ccccc21 [JWH-018] , what is it?
Marked response: 100

Exam item: And then CCCCCn1ccc(C(=O)c2cccc3ccccc23)c1 [JWH-030] , what is it?
Marked response: 76.5

====

- assayedTarget: KV7.1/KCNE1 (Homo sapiens, UniProt P51787)
- assayDetails: Automated patch-clamp (APC, population patch), CHO cells stably expressing human KV7.1/KCNE1
- Assay type: cell-based
- measurementContext: * Greatest efficacy achieved with a concentration between 10 and 30 µM (no fit)
Listed below: KV7.1/KCNE1 channel Efficacy (max reduction in Gmax) Gmin, marked * values for each entry.
Kindly provide the number alone.

Exam item: So what does the record say about KV7.1/KCNE1 channel Efficacy (max reduction in Gmax) Gmin, marked * for CCCCCn1cc(C(=O)C2C(C)(C)C2(C)C)c2ccccc21 [UR-144] ?
Marked response: 0.92

Exam item: And then O=C(c1cccc2ccccc12)c1cn(CCCCCF)c2ccccc12 [AM-2201] , what is it?
Marked response: 0.92

Now turn to the next molecule.
Exam item: So what does the record say about KV7.1/KCNE1 channel Efficacy (max reduction in Gmax) Gmin, marked * for CCCCCn1nc(C(=O)NC23CC4CC(CC(C4)C2)C3)c2ccccc21 [APINACA] ?
Marked response: 0.88

====

Listed below: CB1 receptor Efficacy Emax values for each entry.
- assayedTarget: human CB1 receptor (Homo sapiens)
- Construct: host or cells: CHO-K1 stably expressing CB1, apoaequorin and Gα16
- assayDetails: AequoScreen intracellular calcium release assay, CHO-K1 cells stably expressing CB1
- Assay type: cell-based
- measurementContext: normalized to maximum of JWH-018; n ≥ 3 (JWH-030 n = 2)

// worked examples, CB1 receptor Efficacy Emax included
Exam item: # value lookup — system human CB1 receptor (Homo sapiens), readout CB1 receptor Efficacy Emax, item COC(=O)[C@@H](NC(=O)c1cn(CC2CCCCC2)c2ccccc12)C(C)C
Marked response: 109 % JWH-018

Exam item: And then CC(C)(C)[C@H](NC(=O)c1nn(Cc2ccc(F)cc2)c2ccccc12)C(N)=O , what is it?
Marked response: 106 % JWH-018

Exam item: And then CCCCn1nc(C(=O)NC(C(N)=O)C(C)(C)C)c2cc(Br)ccc21 (centres unmarked) , what is it?
Marked response: 110 % JWH-018

Exam item: And then CCCCCn1cc(C(=O)C2C(C)(C)C2(C)C)c2ccccc21 , what is it?
Marked response: 101 % JWH-018

Now turn to the next compound.
Exam item: # value lookup — system human CB1 receptor (Homo sapiens), readout CB1 receptor Efficacy Emax, item COC(=O)[C@@H](NC(=O)c1nn(Cc2ccc(F)cc2)c2ccccc12)C(C)(C)C
Marked response: 103 % JWH-018
